System: P. falciparum 3D7
Experiment: DAPI stain fluorescent high content imaging assay, P. falciparum 3D7 (confirmatory screen, Avery)
Conditions: Plasmodium falciparum, 3D7, read-out: EC50_nM
Assignment: determine reported EC50 for the given molecules.
Answer with a number only, understood to be in µM.

Field EC50 (entry Clc1ccc2[nH]c3c(NCCCN4CCOCC4)ncnc3c2c1 [MMV006587] ) reads 0.7

Reported EC50 ( COc1ccc(C2Sc3ccccc3N=C3C2=C(O)c2ccccc23)cc1 (centres unmarked) [MMV000563] ) = 0.845

Sample c1ccc2cc3c(Nc4ccc(N5CCOCC5)cc4)ccnc3cc2c1 [MMV006861] ; EC50 observed: 0.251

EC50 measured on CC1CC(C)CN(C(=O)c2ccc(Cl)cc2Cl)C1 (centres unmarked) [MMV001344] = 0.756

The reported value for Oc1ccccc1CN1CCC2(CCCN(Cc3ccccc3F)C2)C1 (centres unmarked) [MMV666116] in terms of EC50 is 0.548

###

Tested on: P. falciparum 3D7
Assay: DAPI stain fluorescent high content imaging assay, P. falciparum 3D7 (confirmatory screen, Avery)
Conditions: Plasmodium falciparum, 3D7, read-out: percent_inh @ 5 uM
inhibition of growth at 5 µM of 90% or higher: MET. Under 90%: NOT MET.

[in] Quick check: does COc1ccc(C(=O)Nc2ccc3nc(N4CCCCC4)cc(C)c3c2)cc1OC [MMV019758] have inhibition of growth at 5 µM greater than or equal to 90%?
[out] NOT MET

[in] Answer whether inhibition of growth at 5 µM of O=C(Nc1ccc(C23CC4CC(CC(c5ccccc5)(C4)C2)C3)cc1)c1cccs1 [MMV007574] is greater than or equal to 90%.
[out] MET

[in] Threshold query (inhibition of growth at 5 µM >= 90%) on O=C(Nc1ccc(Cl)cc1)N1CCN(c2ccc3nncn3n2)CC1 [MMV665917]
[out] NOT MET

###

System: P. falciparum 3D7
Assay: DAPI stain fluorescent high content imaging assay, P. falciparum 3D7 (confirmatory screen, Avery)
Conditions: Plasmodium falciparum, 3D7, read-out: EC50_nM
OBSERVATION TYPE: EC50 (nM)
# unit: nM | format: bare number

For this molecule ( CCOc1cc(Cl)c(C(C)NC(=O)c2cccc(OC)c2)cc1OCC (centres unmarked) [MMV665803] ), measured EC50 is 728

Entry COc1ccc(OC)c(C2C3=C(CC(C)(C)CC3=O)N(c3ccc(Cl)c(Cl)c3)C3=C2C(=O)CC(C)(C)C3)c1 [MMV007208] , EC50 reported as 912

The molecule identified as CNCCCNc1ccnc2cc(Cl)ccc12 [MMV020500] registered its EC50 at 82.2

Form field EC50, entry COc1ccc(Br)cc1C1Nc2ccc3ccccc3c2C2=C1C(=O)CC(c1ccccc1)C2 (centres unmarked) [MMV020885] : 180

Quick note, EC50 for COc1ccccc1CNC(=O)CCn1c(=O)[nH]c2ccsc2c1=O [MMV019066] landed at 140

###

System: P. falciparum 3D7
Test: DAPI stain fluorescent high content imaging assay, P. falciparum 3D7 (confirmatory screen, Avery)
Conditions: Plasmodium falciparum, 3D7, read-out: percent_inh @ 5 uM
OBSERVATION TYPE: inhibition of growth at 5 µM (%)
Entry rule: numbers only, all in %.

Data point: O=c1nc(C=Cc2ccc(Cl)cc2)oc2ccccc12 [MMV007977] ; inhibition of growth at 5 µM = 76

For reference, reported inhibition of growth at 5 µM for COc1ccc(-c2cc3c(nn2)-c2ccccc2C3=O)cc1 [MMV666026] stands at 97

The measured inhibition of growth at 5 µM associated with CCOC(=O)C1=CN(C)C=C(C(=O)OCC)C1c1cc(Br)c(OCC)c(OC)c1 [MMV006656] reads 97

According to the records, this compound Cc1cc(Nc2ccc(OCc3ccccc3)cc2)nc2cc(O)ccc12 [MMV007181] displays inhibition of growth at 5 µM of 96

Note to self: inhibition of growth at 5 µM recorded for CCCN(CCC)CCCNC(=O)c1cc2c(-c3ccc(OC)c(OC)c3)nn(C)c2s1 [MMV000561] was 98

// field: inhibition of growth at 5 µM; key: CCOc1cc2c(cc1OCC)C(c1cc(Cl)ccc1O)NCC2 (stereo not shown) [MMV000478] ; value = 98

The reported value for O=C(NC1CCCC1)c1ccc(N2CCC(NCc3cccc(C(F)(F)F)c3)CC2)cc1 [MMV666070] in terms of inhibition of growth at 5 µM is 93

Per the records, this compound ( Cc1cc(NC(=O)c2ccc(-c3ccccc3)cc2)no1 [MMV018984] ) has inhibition of growth at 5 µM equal to 95

Per the records, this compound ( OC(CNC1CCCCC1)Cn1c2ccc(I)cc2c2cc(I)ccc21 (stereo not shown) [MMV665882] ) has inhibition of growth at 5 µM equal to 97

inhibition of growth at 5 µM measured on CCCCNCC(O)(c1ccc(Cl)cc1)c1ccc(Cl)cc1 [MMV665929] = 97
